Cited source for all entries: ChEMBL document CHEMBL1129973

target: Human immunodeficiency virus type 1 integrase (Human immunodeficiency virus 1, UniProt Q7ZJM1); assay: Inhibitory concentration against HIV-1 integrase by strand transfer method
Sequence (Q7ZJM1 whole entry): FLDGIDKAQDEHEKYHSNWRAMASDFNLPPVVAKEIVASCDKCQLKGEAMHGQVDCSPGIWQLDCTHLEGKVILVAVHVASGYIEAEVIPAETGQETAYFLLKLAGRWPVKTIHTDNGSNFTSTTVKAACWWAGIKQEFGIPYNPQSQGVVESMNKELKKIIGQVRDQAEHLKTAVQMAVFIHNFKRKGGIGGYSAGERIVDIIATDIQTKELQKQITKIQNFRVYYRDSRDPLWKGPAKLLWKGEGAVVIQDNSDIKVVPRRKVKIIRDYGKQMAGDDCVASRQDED
pIC50: −log10 of the molar value.
Quick reference: pIC50 of the listed items.
readout: pIC50

CC(=O)Nc1ccc(S(=O)(=O)/N=N/NCC(=O)O)cc1 :: < 3.70
CCOC(=O)COc1ccc(S(=O)(=O)c2ccc(OCC(=O)OCC)cc2)cc1 :: < 3.70
Cc1csc(NS(=O)(=O)c2ccc(N/N=C3/C(=N)C(C)C(=O)C(C)C3=O)cc2)c1C (configuration not stated) :: < 3.70
CC(=O)Nc1cc2cc(NS(=O)(=O)c3cc(C(F)(F)F)cc(C(F)(F)F)c3)ccc2oc1=O :: < 3.70
CCC(=O)C(C)C(=O)C(=O)NCCNC(=O)C(=O)C(C)C(=O)CC (configuration not stated) :: < 3.70
NS(=O)(=O)c1ccc(NC=C2C(=O)N(c3ccccc3)N(c3ccccc3)C2=O)cc1 :: < 3.70
O=C1NC(=S)SC1c1ccc(S(=O)(=O)Nc2ncccn2)cc1 (configuration not stated) :: 4.85
CCOC(=S)SC1OC(COC(C)=O)C(OC(C)=O)C(OC(C)=O)C1OC(C)=O (configuration not stated) :: < 3.70
CC(=O)N(C(C)=O)c1nc2c(c(=O)n(C)c(=O)n2C)n1C :: < 3.70
Cc1cc(NS(=O)(=O)c2ccc(N/N=C3/C(=N)C(C)C(=O)C(C)C3=O)cc2)nc(C)n1 (configuration not stated) :: < 3.70
CC1C(=N)/C(=N/Nc2ccc(S(=O)(=O)Nc3nccs3)cc2)C(=O)C(C)C1=O (configuration not stated) :: < 3.70
COC(=O)c1noc2c1CSC1=C2CS(=O)(=O)c2ccccc21 :: < 3.70

----------
molecular target: UniProt:Q7ZJM1; experiment: Inhibitory concentration to inhibit HIV-1 integrase by 3' -processing method
readout: IC50 (µM)

CC1=NN(c2ccccc2)C(=O)C1/N=N/c1ccc(S(=O)(=O)Nc2nccc(C)n2)cc1 (stereo not drawn) :: 49
NC1=NNC(=O)C1/N=N/c1ccc(S(=O)(=O)Nc2nccs2)cc1 (stereo not drawn) :: 71
